# Test system: gene editing with dCas9
# Experiment: Screen of 322 new SSAP proteins, gene editing activity with dCas9 (Table 5)
# Format: cell-based
# Details: normalized
dCas9 with SSAP activity (normalized) by entry:
Experimental readout: dCas9 with SSAP activity (normalized)

>>> numeric_result("SSAP_33: SEQ ID NO: 202 (protein) TTNQVVTHKNFFNAPNVQKSFDDVWKGAGVQFATSILSVIQGNASLKSASNESIMTSAMKAAVLNLPIEPSLGRAYLVPYKGQVQFQLGYKGLIELAQRSGKYKSINAGPVYKSQFVSYDPLFEELTLDFTQPQDEVIGYFASFSLLNGFRKLTYWTKAEVEAHGKKFSKTFGNGPWKTDFDAMARKTVLKHILSIYGPLSVEMQTGMQNDESENDNATRDIKTAEPVNADQQLLEDLMNVDTETGEILEEVSELKDNGELDLKYEDPNAR")
"−1.043"
>>> numeric_result("SSAP_291: SEQ ID NO: 460; Nocardia pseudobrasiliensis (protein, listed as Nocardia pseudobrasiliensis) SSIANAANASELTPASIVNRYRDDIAAVLPPKLQARIDRWLRLAIGAVNSNADLVDRVRADQGASMMQTLMKCAALGHEPGSGLFHLVPKGPRIEGWEDYKGVLQRIDRSGVYARVVVEVVHANDDYAYDPNLDDRPQHKRAAADRGEPVSAYAYAVYPNGAVTAVAEATPELIAASKAKARGADNASSPWRAPGAPMHRKVAIRQLEKFVATSAEDMREVAVRNAAPDVEDAPADYYQEP")
"−1.272"
>>> numeric_result("SSAP_273: SEQ ID NO: 442; Virgibacillus (multispecies) (protein, listed as Virgibacillus sp.) ATNDSVKNQIANKNQGSNQVNPNNLGLKQLLSTPTMRKKFDEVLDKKAPQFMSSLLNLYSNDSYLQKAEPMSVVTSALVAATLDLPIDKNLGYAWIVPYGGKAQFQLGYKGYIQLALRTGQYRNINVIEVYEGELKSFNRLTEEMELDFEQKQSDKVIGYTGYFELINGFRKTVYWSKEEIEKHKKRFSKSDFGWKKDWDAMAKKTVIRNMLNKWGILSIDMQKGIVEDNKDPIEKANEFDEQDIIEADFSEVNDDQEIDFSDAQ")
2.101
>>> numeric_result("SSAP_108: SEQ ID NO: 277; Rummeliibacillus stabekisii (protein, listed as Rummeliibacillus stabekisii) ATTTELKEQMKQQAPAQTKKPKTIEDYMKQMAPAMAEALPKHMSVDRLTRLAMTTIRTTPALRQADVSSLLGAVMQAAQLGLEPGLLGQCYLLPFKNKKKAITEVQFIIGYKGMIDLARRSGHIQSIYSHAVFENDVFEYELGLEPKLKHTPTMSTDKGAFIGAYAVAHFKDGGHQFEFMSKADIEKRKGRSKAANSDYSPWLTDYEEMAKKTVIRHMWKYLPISVEMQEQVAYDEGVGRSIKDVTPEEDVFVQAPDEILEAEATEA")
"−0.539"
>>> numeric_result("SSAP_68: SEQ ID NO: 237 (protein) TQQMPIEAQGEPTKELQQKAAVDRFNATLHQMQNEIARALPKHMTGDRFVRIVLTEVRKDPTLALCDPLTMFGSLLTAAALGLEPGLNGECWLVPRKNHGTLEAQLQVGYRGVVKLFWQNPAAAYLDTGYVCERDHFRFAKGLNPILEHTPAEGDRGKVVRYYAVAGLNTGARVFDVFTPAQIKTLRGGKVGSNGDIPDPEHWMERKTALLQVLKLMPKSTQLAAVPAADGRAHTISDAQQIFGGVDTSTGEVLEAEPVEGDAA")
"−0.296"
>>> numeric_result("SSAP_251: SEQ ID NO: 420; Hathewaya proteolytica (protein, listed as Hathewaya proteolytica) ADSKKELILKESYSVLDRLIETKISAMPKDFNRTRFLQNCMTVLQDTKDIEKCQPISVARTLLKGAFLGLDFFQKECYAIPYGGTLQFQTDYKGETKMAKKYSIRPIKDIYAKVVREDDLFEEEIKEGQQFVNFKPIPFSDKPIIGAFAVVLYQDGGMEYETMSKTQIEGIRDNFSKMKNGLMWTKTPEEAYKKTVLRRLTKKIEKDFDTIEQAKTYEETSDSEFKKEEKCNEKSVFDVEYSEVESEELEQQTMLENSPFGGEQ")
"−0.760"
>>> numeric_result("SSAP_101: SEQ ID NO: 270; Halomonadaceae bacterium R4HLG17 (protein, Halomonadaceae bacterium R4HLG17) SEVATQDTLGKELQQHSGQQKKPMPTTIQGMLKDPRFTSQIARALPKHITPDRITRIALTEVNKTPALGKCDPVTLFGSIIQSAQLGLELGGALGHAYLVPYGNQAQFIIGYRGMIDLARRSGQMVSLQAHTVHDNDEFDFEYGLDEKLRHVPARGDRGPMVAVYSVAKLVGGGHQIEVMWKEDVDAIRSKSKAGNSGPWRDHYEEMAKKTAIRRLFKYLPVSVEMQKAVALDEQAEAGVQDNNVFDGEFSYGEAE")
"−0.413"
>>> numeric_result("SSAP_257: SEQ ID NO: 426; Listeria (multispecies) (protein, listed as Listeria sp.) ATNDELKNQLANKQNGGQVASAQSLDLKGLLEAPTMRKKFEKVLDKKAPQFLTSLLNLYNGDDYLQKTDPMTVVTSAMVAATLDLPIDKNLGYAWIVPYKGRAQFQLGYKGYIQLALRSGQYKSINVIEVREGELLKWNRLTEEIELDLDNNTSEKVVGYCGYFQLINGFEKTVYWTRKEIEAHKQKFSKSDFGWKKDYDAMAKKTVLRNMLSKWGILSIDMQTAVTEDEAEPRERKDVTEDESIPDIIDAPITPSDTLEAGSEVQGSMI")
"−1.189"
